The entries below are paired with their reported viability at 28.5 h, 10 µM.
experiment: in vitro
conditionLabel: human, hela cells, % viability
API: value field is a number in %; no unit string.

[[record]]
compound = "CC1CCc2n[nH]c(C(=O)NCCCC3CCOC3)c2C1 (stereo not shown)"
metric = "viability at 28.5 h, 10 µM"
reportedresult = 102

[[record]]
compound = "O=C(CCS(=O)(=O)c1nc(-c2ccccc2)cc(C(F)(F)F)n1)Nc1ccc(Cl)cc1Cl"
metric = "viability at 28.5 h, 10 µM"
reportedresult = 84.9

[[record]]
compound = "CCC(NC(=O)C(C)n1cc(Cl)cn1)c1ccc(OC)cc1 (stereo not shown)"
metric = "viability at 28.5 h, 10 µM"
reportedresult = 95.3

[[record]]
compound = "O=C(NCc1ccccc1)c1ccc2[nH]c(=O)c(-c3ccccc3)c(O)c2c1"
metric = "viability at 28.5 h, 10 µM"
reportedresult = 84

[[record]]
compound = "COc1cc(C)c(C)cc1S(=O)(=O)N1[C@@H](c2ccccc2F)C[C@@H]2NC(=O)CCC[C@H]21"
metric = "viability at 28.5 h, 10 µM"
reportedresult = 112

[[record]]
compound = "COc1cccc2cc(-c3cncn3CCCC(C)(C)CO)oc12"
metric = "viability at 28.5 h, 10 µM"
reportedresult = 112


Recorded viability at 28.5 h, 10 µM of CC(C)(C)c1nnc(NS(=O)(=O)c2ccc([N+](=O)[O-])cc2)s1 , please.
93.3

// query viability at 28.5 h, 10 µM value for entry O=C(Cc1ccccn1)N1CCCc2ccccc21
105

Entry COc1ccc(-c2cc(NCc3cc(OC)c(OC)c(OC)c3)ncn2)cc1 : reported viability at 28.5 h, 10 µM = ?
90

Data request, read-out viability at 28.5 h, 10 µM, for COc1ccc(-c2cnc3[nH]c(=O)n(CC(C)(C)CO)c3n2)c(OC)c1OC
91.8

What value of measured viability at 28.5 h, 10 µM is listed for Cc1nnc(C(C)N2CCN(Cc3noc(C(C)(C)C)n3)CC2)o1 (stereo not shown) ?
85.7

Sample COc1ccc2c(c1)OC1(CCN(C(=O)c3ccc(C(C)=O)cc3)CC1)CC2=O — what was its viability at 28.5 h, 10 µM?
94.2

Recorded viability at 28.5 h, 10 µM for Cc1ccccc1NC(=O)NC(=O)C1CCN(S(C)(=O)=O)CC1 , please?
87.7

GET /values?readout=viability at 28.5 h, 10 µM&item= COC(=O)c1ccc(C2N(Cc3ccccc3)CCN2Cc2ccccc2)cc1
87.3

Reported viability at 28.5 h, 10 µM for COC(C)c1nc(C)c(C(=O)NC2CCCN(c3ccn(C)n3)C2=O)s1 (stereo not shown) : what is it?
100

// returns reported viability at 28.5 h, 10 µM for input CC(C)(C)S(=O)(=O)Nc1nccnc1-c1ccc(OCc2ccccc2)cc1
89.4

====

// values below are reported viability at 28.5 h, 10 µM
experiment: in vitro
conditionLabel: human, hela cells, % viability
Hi! Could you send only the number? It should be in %, unit omitted.

Solved entries:
[[record]]
molecule = "CNC(=O)c1ccc(NS(=O)(=O)c2ccc(OC(F)(F)F)cc2)cc1"
endpointunit = "%"
reportedresult = 96.7

[[record]]
molecule = "COc1cc(-c2cc(N(C)CCN(C)C)n3nccc3n2)cc(OC)c1OC"
endpointunit = "%"
reportedresult = 110

[[record]]
molecule = "Cc1ccc(SCCC(=O)NC(CCC(=O)O)C(=O)O)cc1 (centres unmarked)"
endpointunit = "%"
reportedresult = 88


Which viability at 28.5 h, 10 µM value is on record for Cc1cc(NC(=O)CN(C)C(=O)c2ccc(-n3cc(Br)cn3)cc2)no1 ?
100

Item Nc1nc(SCC(=O)NCc2ccc3c(c2)OCO3)n[nH]1 has what recorded viability at 28.5 h, 10 µM?
101

====

Listed here: items and their measured viability at 28.5 h, 10 µM.
experiment: in vitro
conditionLabel: human, hela cells, % viability
Your answer should be a plain number; it is taken to be in %.

Example compounds with recorded viability at 28.5 h, 10 µM:
[[record]]
compound = "CC1=NN(c2ccc([N+](=O)[O-])cc2)C(=O)/C1=C\\NCCN1CCN(C(=O)c2ccc(Br)cc2)CC1"
reportedresult = 110

[[record]]
compound = "COc1cc(CN2CCN(C3CCCCC3)CC2)cc(OC)c1OC"
reportedresult = 99.1


Here's the next entry for you.
What does the record list as viability at 28.5 h, 10 µM for CCOC(=O)c1cn([C@H]2CC[C@H](O)CC2)cc(Oc2ccccc2)c1=O ?
108

====

experiment: in vitro
conditionLabel: human, hela cells, % viability
I'd appreciate it if you marked entries 1.0 when viability at 28.5 h, 10 µM is lower than 90% and 0.0 when it is not.

Sample answers from the record:
[[record]]
compound = "O=C(Nc1ccc(Cl)cc1C(=O)NCCN1CCOCC1)c1ccc(Cl)cc1Cl"
labelvalue = 0.0

[[record]]
compound = "COc1cc(NC(=O)CN2C(=O)c3ccc([N+](=O)[O-])cc3C2=O)c(C(=O)O)cc1OC"
labelvalue = 0.0


Problem: For the compound COc1ccc(OC)c(-c2nc(Nc3ccccc3Cl)sc2CC(=O)O)c1 , is viability at 28.5 h, 10 µM under 90%?
0.0

Say whether its viability at 28.5 h, 10 µM is strictly beneath 90%. Entry: Clc1ccc(CN2CCC(Oc3cncc(OCc4cccnc4)n3)C2)cc1 (centres unmarked)
0.0

Dear colleague, could you confirm whether viability at 28.5 h, 10 µM of CN(CC1OCCc2ccccc21)C(=O)CCC1CCCO1 (centres unmarked) falls below 90%? Thanks.
1.0

Take the compound CCCCOc1ccccc1C1CC(=O)Nc2c(-c3ccccc3F)csc21 (centres unmarked) and say whether its viability at 28.5 h, 10 µM is less than 90%.
1.0

Does the reported viability at 28.5 h, 10 µM of CC1(C)CC(NC(=O)C(=O)NC2CC(C)(C)NC(C)(C)C2)CC(C)(C)N1 stay below 90%?
0.0

====

experiment: in vitro
conditionLabel: human, hela cells, % viability
Some molecules, each annotated with its measured viability at 28.5 h, 10 µM.
Response body: numeric value in %, unit text excluded.

Example molecules with recorded viability at 28.5 h, 10 µM:
[[record]]
molecule = "Cc1nc(-c2ccc(NC(=O)C3CC=CCC3C(=O)O)cc2)cs1 (stereo not drawn)"
metric = "viability at 28.5 h, 10 µM"
reportedresult = 99.4

[[record]]
molecule = "CC(C)(C)OC(=O)N1CCC(NC(=O)c2ccc(-c3ccc(S(C)(=O)=O)cc3)cn2)CC1"
metric = "viability at 28.5 h, 10 µM"
reportedresult = 84.8

[[record]]
molecule = "Cc1ccc(C(=O)c2cccc(N3C(=O)c4ccc(C(=O)O)cc4C3=O)c2)cc1C"
metric = "viability at 28.5 h, 10 µM"
reportedresult = 110

[[record]]
molecule = "CCCCC(O)(Cc1onc(-c2ccccc2)c1C(=O)N(C)C)c1ccc(CN2CCCC2)cc1 (stereo not drawn) [CBK034415T]"
metric = "viability at 28.5 h, 10 µM"
reportedresult = 113

[[record]]
molecule = "O=C(CCc1nc2sc3c(c2c(=O)[nH]1)CCCC3)N1CCCC1"
metric = "viability at 28.5 h, 10 µM"
reportedresult = 90.8

[[record]]
molecule = "CCOC(=O)c1[nH]c(C)c(/C=C/C2=CCN(C)CC2)c1C"
metric = "viability at 28.5 h, 10 µM"
reportedresult = 99.3

[[record]]
molecule = "Cc1cc(=O)[nH]c(SCC(=O)O)c1C#N"
metric = "viability at 28.5 h, 10 µM"
reportedresult = 116

[[record]]
molecule = "CCCc1nnc(C(=O)NC(=O)NCCCN(C)C)s1"
metric = "viability at 28.5 h, 10 µM"
reportedresult = 84.3


Okay, next one:
GET /values?readout=viability at 28.5 h, 10 µM&item= O=S1(=O)NC=Nc2ccccc21
112

====

Measured viability at 28.5 h, 10 µM, listed per entry for reference.
experiment: in vitro
conditionLabel: human, hela cells, % viability
Unit % implied. Number only.

What value of viability at 28.5 h, 10 µM has been reported for the following compound? O=C(COc1ccccc1)N1CCCC1c1cccc(Cc2ccc(F)cc2)n1 (stereo not shown)
102

What value of measured viability at 28.5 h, 10 µM is listed for CN(C)CCn1c(=O)[nH]c2ncc(-c3cc(C(F)(F)F)cc(C(F)(F)F)c3)nc21 ?
112

====

System: L. iners
Construct: DSM 13335
experiment: organism not typed
Design: Microbial growth in liquid dilution assay, OD600 relative to DMSO control
conditionLabel: estimated IC50; read-out: L. iners, IC50 (µM) estimate
metric: IC50

Name the recorded IC50 for O=C(N/N=C\c1ccc([N+](=O)[O-])o1)c1nc(-c2ccccc2)cc(-c2ccccc2)n1 [c3e] .
> 30 µM
